# assay target: Ephrin type-B receptor 4 (Homo sapiens)
# Sequence (whole entry): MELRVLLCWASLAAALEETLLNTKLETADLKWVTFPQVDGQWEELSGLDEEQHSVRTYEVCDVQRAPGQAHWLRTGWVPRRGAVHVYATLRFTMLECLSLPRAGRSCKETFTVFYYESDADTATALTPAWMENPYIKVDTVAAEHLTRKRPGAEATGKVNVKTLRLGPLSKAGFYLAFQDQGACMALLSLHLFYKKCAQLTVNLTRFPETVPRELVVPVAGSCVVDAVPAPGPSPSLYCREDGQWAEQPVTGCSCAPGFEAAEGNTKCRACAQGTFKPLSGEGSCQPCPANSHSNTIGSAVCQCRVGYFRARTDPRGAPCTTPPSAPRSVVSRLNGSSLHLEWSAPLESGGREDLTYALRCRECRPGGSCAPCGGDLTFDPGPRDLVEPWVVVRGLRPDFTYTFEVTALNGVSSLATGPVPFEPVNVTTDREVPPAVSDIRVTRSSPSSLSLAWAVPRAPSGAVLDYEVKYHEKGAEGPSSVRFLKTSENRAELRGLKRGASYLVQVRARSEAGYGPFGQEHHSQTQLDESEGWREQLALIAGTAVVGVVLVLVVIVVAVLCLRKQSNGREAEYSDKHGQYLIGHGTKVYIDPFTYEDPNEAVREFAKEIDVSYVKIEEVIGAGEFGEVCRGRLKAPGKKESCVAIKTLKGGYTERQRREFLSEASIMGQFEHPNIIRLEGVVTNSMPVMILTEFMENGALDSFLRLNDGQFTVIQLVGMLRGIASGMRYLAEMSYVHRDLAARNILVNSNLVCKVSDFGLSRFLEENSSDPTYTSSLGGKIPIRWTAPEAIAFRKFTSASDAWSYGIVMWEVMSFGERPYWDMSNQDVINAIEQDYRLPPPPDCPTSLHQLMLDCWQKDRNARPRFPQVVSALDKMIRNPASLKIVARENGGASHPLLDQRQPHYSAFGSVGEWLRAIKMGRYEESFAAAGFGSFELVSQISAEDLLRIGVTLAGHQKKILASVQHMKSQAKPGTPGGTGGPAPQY
# settings: at 10 µM
# Description: Millipore: Percentage of residual kinase activity of EPHB4 at 10uM relative to control. Control inhibitor: PP2 at 30.0uM. Buffer: 8 mM MOPS pH 7.0, 0.2 mM EDTA, 10 mM MnCl2

| chemical structure | residual activity, % |
| --- | --- |
| c1ccc2c(-c3ccncc3)c[nH]c2c1 | 108 |
| O=Nc1c(-c2c(O)[nH]c3ccccc23)[nH]c2ccccc12 | 13 |
| O=C(O)c1ccc2c3c1cccc3c(=O)n1c3ccccc3nc21 | 100 |
| Cc1cc(Nc2nc(-c3ccccc3)nc3ccccc23)n[nH]1 | 20 |
| O=[N+]([O-])c1ccc(-c2nc(-c3ccc(F)cc3)c(-c3ccncc3)[nH]2)cc1 | 76 |
| CCN(CC)C(=O)c1ccc(Nc2nc(OCC3CCCCC3)c3nc[nH]c3n2)cc1 | 12 |
| COc1ccc(OC)c2c(=S)c3ccccc3[nH]c12 | 102 |
| CC[n+]1c(/C=C/N(C)c2ccccc2)n(-c2ccccc2)c2ccc(-c3nc4ccccc4s3)cc21 | 159 |
| N#CC(C#N)=C(N)/C(C#N)=C/c1ccc(O)cc1 | 119 |
| COc1cc2ncc(-c3ccccc3)nc2cc1OC | 123 |
| O=C1Nc2ccc(Br)cc2/C1=C\c1cc2c([nH]1)CCCC2 | 132 |
| Oc1n[nH]c2nnc(-c3c(-c4ccccc4)nn4ccccc34)cc12 | 80 |
| Cn1cnc2cc3c(Nc4cccc(Br)c4)ncnc3cc21 | 4 |
